So I've got IC50 readings for UniProt Q07817, take a look.
Sequence (Q07817 whole entry): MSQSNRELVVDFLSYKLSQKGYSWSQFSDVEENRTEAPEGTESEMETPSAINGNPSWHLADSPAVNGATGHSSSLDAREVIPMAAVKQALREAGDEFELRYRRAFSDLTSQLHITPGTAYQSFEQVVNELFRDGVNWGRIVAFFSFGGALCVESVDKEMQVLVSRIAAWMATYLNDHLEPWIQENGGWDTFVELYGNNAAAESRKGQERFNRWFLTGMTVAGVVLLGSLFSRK

Some solved entries appear below for comparison.
>>> result("O=C(c1cc(-c2cc3c(cc2C(=O)N2Cc4ccccc4C[C@H]2CN2CCOCC2)OCO3)n2c1CCCC2)N(Cc1ccccc1-c1ccccc1)c1ccc(O)cc1 [Compound 18]")
"≤ 2 µM"
>>> result("O=C(c1cc(-c2cc3c(cc2C(=O)N2Cc4ccccc4C[C@H]2CN2CCOCC2)OCO3)n2c1CCCC2)N(Cc1ccncc1)c1ccc(O)cc1 [Compound 9]")
"2 to 4 µM"
>>> result("O=C(c1cc(-c2cc3c(cc2C(=O)N2Cc4ccccc4C[C@H]2CN2CCOCC2)OCO3)n2c1CCCC2)N(Cc1ccc(OC(F)(F)F)cc1)c1ccc(O)cc1 [Compound 26]")
"> 4 µM"
>>> result("Cc1ccccc1CN(C(=O)c1cc(-c2cc3c(cc2C(=O)N2Cc4ccccc4C[C@H]2CN2CCOCC2)OCO3)n2c1CCCC2)c1ccc(O)cc1 [Compound 4]")
"≤ 2 µM"

Any idea what IC50 was measured for O=C(c1cc(-c2cc3c(cc2C(=O)N2Cc4ccccc4C[C@H]2CN2CCOCC2)OCO3)n2c1CCCC2)N(Cc1c(F)cccc1F)c1ccc(O)cc1 [Compound 19] ?
> 4 µM

Suppose we examine the compound COc1cccc(CN(C(=O)c2cc(-c3cc4c(cc3C(=O)N3Cc5ccccc5C[C@H]3CN3CCOCC3)OCO4)n3c2CCCC3)c2ccc(O)cc2)c1C [Compound 3] ; what IC50 value has been reported?
≤ 2 µM

What does the data say about its IC50? Entry: NC(=O)c1ccc(CN(C(=O)c2cc(-c3cc4c(cc3C(=O)N3Cc5ccccc5C[C@H]3CN3CCOCC3)OCO4)n3c2CCCC3)c2ccc(O)cc2)cc1 [Compound 13]
≤ 2 µM

###

System: caspase-3 and -7 activities in RS4-11 cells
MEASUREMENT PROTOCOL: Caspase-3/7 activation (Caspase-Glo 3/7) in RS4-11 cells
Assay type: cell-based
TEST PARAMETERS: Homo sapiens, 3.5 h incubation, read-out: Cas-3/7 (EC50 code)
pEC50: −log10 of the molar value.
Recorded pEC50, one value per entry.

>>> result("NC(=O)c1cccc(CN(C(=O)c2cc(-c3cc4c(cc3C(=O)N3Cc5ccccc5C[C@H]3CN3CCOCC3)OCO4)n3c2CCCC3)c2ccc(O)cc2)c1")
"6.60 to 7.00"
>>> result("O=C(c1cc(-c2cc3c(cc2C(=O)N2Cc4ccccc4C[C@H]2CN2CCOCC2)OCO3)n2c1CCCC2)N(Cc1ccccc1Cl)c1ccc(O)cc1")
"≥ 7.00"
>>> result("COc1c(C)cnc(CN(C(=O)c2cc(-c3cc4c(cc3C(=O)N3Cc5ccccc5C[C@H]3CN3CCOCC3)OCO4)n3c2CCCC3)c2ccc(O)cc2)c1C")
"< 6.60"
>>> result("COCCNC(=O)c1cccc(CN(C(=O)c2cc(-c3cc4c(cc3C(=O)N3Cc5ccccc5C[C@H]3CN3CCOCC3)OCO4)n3c2CCCC3)c2ccc(O)cc2)c1")
"< 6.60"
>>> result("CN1CCN(C(=O)c2cccc(CN(C(=O)c3cc(-c4cc5c(cc4C(=O)N4Cc6ccccc6C[C@H]4CN4CCOCC4)OCO5)n4c3CCCC4)c3ccc(O)cc3)c2)CC1")
"< 6.60"

Please tell me: pEC50 of Cc1c(CN(C(=O)c2cc(-c3cc4c(cc3C(=O)N3Cc5ccccc5C[C@H]3CN3CCOCC3)OCO4)n3c2CCCC3)c2ccc(O)cc2)cccc1[N+](=O)[O-] , system caspase-3 and -7 activities in RS4-11 cells?
< 6.60

pEC50 of O=C(c1cc(-c2cc3c(cc2C(=O)N2Cc4ccccc4C[C@H]2CN2CCOCC2)OCO3)n2c1CCCC2)N(Cc1ccccc1C(F)(F)F)c1ccc(O)cc1 on caspase-3 and -7 activities in RS4-11 cells?
≥ 7.00

# returns recorded pEC50 (system: caspase-3 and -7 activities in RS4-11 cells) for Cn1cnnc1CN(C(=O)c1cc(-c2cc3c(cc2C(=O)N2Cc4ccccc4C[C@H]2CN2CCOCC2)OCO3)n2c1CCCC2)c1ccc(O)cc1
≥ 7.00

Notebook: pull reported pEC50 for caspase-3 and -7 activities in RS4-11 cells, entry NC(=O)c1ccc(CN(C(=O)c2cc(-c3cc4c(cc3C(=O)N3Cc5ccccc5C[C@H]3CN3CCOCC3)OCO4)n3c2CCCC3)c2ccc(O)cc2)cc1
≥ 7.00

Recorded pEC50 for Cc1cccc(CN(C(=O)c2cc(-c3cc4c(cc3C(=O)N3Cc5ccccc5C[C@H]3CN3CCOCC3)OCO4)n3c2CCCC3)c2ccc(O)cc2)c1 with caspase-3 and -7 activities in RS4-11 cells, please?
< 6.60

Record lookup: for caspase-3 and -7 activities in RS4-11 cells, what pEC50 belongs to CN(C)CCNC(=O)c1cccc(CN(C(=O)c2cc(-c3cc4c(cc3C(=O)N3Cc5ccccc5C[C@H]3CN3CCOCC3)OCO4)n3c2CCCC3)c2ccc(O)cc2)c1 ?
< 6.60
